B1: CPEB3 Ribozyme (parent)
chain: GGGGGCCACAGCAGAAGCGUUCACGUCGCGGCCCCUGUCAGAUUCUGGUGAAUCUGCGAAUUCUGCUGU

# Variants of: B1
# ASSAY_NAME: self-cleavage, relative activity (ratio to wild type); higher = more cleavage; co-transcriptional
Item-by-item account of self-cleavage

1. G5U U36C = 0.21
2. A52G A60U = 0.506
3. G3U G17A = 0.0459
4. G5C G19C = 0.0995
5. G14C G30U = 0.157
6. U20C U62G = 0.278
7. A8C U64A = 0.947
8. C18U C39G = 0.491
9. G48C U69A = 1.01
10. U21A G37C = 0.217

Q) Tell me its self-cleavage given A16U G48U as the entry.
A) 0.907

Q) Tell me its self-cleavage given G19A U61G as the entry.
A) 0.164

Q) Tell me its self-cleavage given A15C C57G as the entry.
A) 0.269

Reference source for all entries: the RNAGym collection of RNA variant scans (doi:10.7554/elife.80360)
